Test system: SU-DHL-1
Test: Cell viability assay (ATPlite)
Assay type: cell-based
Details: Homo sapiens; SU-DHL-1 cell line, 72 hours incubation
metric name: IC50 (µM)

[
  {
    "molecule": "O=C(c1ccc(Oc2ccccc2)cc1Cl)c1c[nH]c2ncnc(N[C@@H]3CC[C@@H](CO)OC3)c12 [nemtabrutinib]",
    "observed measurement": 6.22
  }
]

* * *

Target: PKD3 (Homo sapiens, UniProt O94806)
Construct: purchased Carna Biosciences
Sequence (O94806 1-890): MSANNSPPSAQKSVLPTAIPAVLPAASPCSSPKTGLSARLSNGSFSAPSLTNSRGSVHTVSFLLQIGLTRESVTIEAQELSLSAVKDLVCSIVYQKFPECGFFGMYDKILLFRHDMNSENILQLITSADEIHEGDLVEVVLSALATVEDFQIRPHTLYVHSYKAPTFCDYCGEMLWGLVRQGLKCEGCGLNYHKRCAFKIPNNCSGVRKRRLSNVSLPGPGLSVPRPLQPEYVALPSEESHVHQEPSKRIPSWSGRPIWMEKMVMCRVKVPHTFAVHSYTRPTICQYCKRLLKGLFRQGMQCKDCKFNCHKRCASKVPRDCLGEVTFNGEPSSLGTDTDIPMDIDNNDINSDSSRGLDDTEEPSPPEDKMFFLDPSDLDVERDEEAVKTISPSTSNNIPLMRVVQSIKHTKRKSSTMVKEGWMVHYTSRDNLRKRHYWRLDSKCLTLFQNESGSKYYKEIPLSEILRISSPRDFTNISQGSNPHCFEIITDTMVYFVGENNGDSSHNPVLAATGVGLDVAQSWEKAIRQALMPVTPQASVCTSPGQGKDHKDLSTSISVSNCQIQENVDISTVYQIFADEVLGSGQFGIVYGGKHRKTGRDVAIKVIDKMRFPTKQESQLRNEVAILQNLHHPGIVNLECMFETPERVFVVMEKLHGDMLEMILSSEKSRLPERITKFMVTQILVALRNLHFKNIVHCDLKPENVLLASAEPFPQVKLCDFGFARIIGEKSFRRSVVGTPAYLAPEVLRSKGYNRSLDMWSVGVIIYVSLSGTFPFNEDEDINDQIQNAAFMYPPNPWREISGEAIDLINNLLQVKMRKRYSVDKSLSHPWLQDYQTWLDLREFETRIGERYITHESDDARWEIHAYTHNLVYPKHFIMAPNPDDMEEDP
Assay: Kinase panel profiling at 1 µmol/L (mobility shift assay, Carna)
Assay type: biochemical
Details: 1 µmol/L of BTK inhibitor
metric name: Percentage inhibition of kinase enzyme activity (%)

[
  {
    "smiles text": "COc1ccc(F)cc1C(=O)NCc1ccc(-c2nn([C@@H](C)C(F)(F)F)c(N)c2C(N)=O)cc1",
    "study system": "PKD3 (Homo sapiens, UniProt O94806)",
    "units label": "%",
    "observed measurement": 2.18
  },
  {
    "smiles text": "O=C(c1ccc(Oc2ccccc2)cc1Cl)c1c[nH]c2ncnc(N[C@@H]3CC[C@@H](CO)OC3)c12",
    "study system": "PKD3 (Homo sapiens, UniProt O94806)",
    "units label": "%",
    "observed measurement": 16.29
  },
  {
    "smiles text": "C=CC(=O)N1CCC[C@@H](n2nc(-c3ccc(Oc4ccccc4)cc3)c3c(N)ncnc32)C1",
    "study system": "PKD3 (Homo sapiens, UniProt O94806)",
    "units label": "%",
    "observed measurement": 5.48
  },
  {
    "smiles text": "CC#CC(=O)N1CCC[C@H]1c1nc(-c2ccc(C(=O)Nc3ccccn3)cc2)c2c(N)nccn12",
    "study system": "PKD3 (Homo sapiens, UniProt O94806)",
    "units label": "%",
    "observed measurement": -2.07
  }
]

These measurements were taken from paper PMC12586182.
